test: Pharmacokinetic assays after oral gavage administration to rats
Type: in vivo, male SD rats
conditionParameters: plasma, active metabolite; oral gavage, male SD rats
# reported Cmax; entries follow
readoutType: Cmax (ng/mL)

>  <molecule>
CCCCCCOC(=O)Nc1cccc2c1CN(C1CCC(=O)NC1=O)C2=O (stereo not shown) [Compound 5]

>  <readoutType>
Cmax

>  <observedResult>
158

$$$$
>  <molecule>
CCCCCCCCCCCOC(=O)Nc1cccc2c1CN(C1CCC(=O)NC1=O)C2=O (stereo not shown) [Compound 8]

>  <readoutType>
Cmax

>  <observedResult>
105.3

$$$$
>  <molecule>
CC(C)OC(=O)Nc1cccc2c1CN(C1CCC(=O)NC1=O)C2=O (stereo not shown) [Compound 1]

>  <readoutType>
Cmax

>  <observedResult>
543.6

$$$$
>  <molecule>
CCCCCCCCCCCCCCCCCCOC(=O)Nc1cccc2c1CN(C1CCC(=O)NC1=O)C2=O (stereo not shown) [Compound 9]

>  <readoutType>
Cmax

>  <observedResult>
95.6

$$$$
>  <molecule>
Cc1oc(=O)oc1COC(=O)Nc1cccc2c1CN(C1CCC(=O)NC1=O)C2=O (stereo not shown) [Compound 6]

>  <readoutType>
Cmax

>  <observedResult>
405.4

$$$$
>  <molecule>
CCCCCCCCOC(=O)Nc1cccc2c1CN(C1CCC(=O)NC1=O)C2=O (stereo not shown) [Compound 7]

>  <readoutType>
Cmax

>  <observedResult>
135

$$$$
>  <molecule>
CCC(CC)COC(=O)Nc1cccc2c1CN(C1CCC(=O)NC1=O)C2=O (stereo not shown) [Compound 10]

>  <readoutType>
Cmax

>  <observedResult>
163.2

$$$$

All figures here come from patent US20250092010A1.
